The reported measurements were obtained from patent US12103925B2.

- measurement_protocol: Solubility study in pH 1.2 buffer solution and pH 1.2 SGF (HPLC)
- Type: physicochemical
- conditions_used: pH 1.2 buffer solution, pH 1.2, simulated gastric fluid, thermodynamic from solid, 2 hours
property_name: solubility at 2 hours (mg/mL)
I only need the number, in mg/mL, no unit after it.

Request: So what does the record say about solubility at 2 hours for "C=CC(=O)N1CCC[C@@H](n2c(=O)n(-c3ccc(Oc4ccccc4)cc3)c3c(N)nccc32)C1" ?
Response: 29.1

====

- measurement_protocol: Solubility study in pH 1.2 buffer solution and pH 1.2 SGF (HPLC)
- Assay type: physicochemical
- conditions_used: pH 1.2 buffer solution and pH 1.2 SGF, pH 1.2, simulated gastric fluid, thermodynamic from solid, pH 1.2 buffer and pH 1.2 SGF (medium simulating the physiological pH of the human stomach); read-out: solubility, approximate level
property_name: solubility

Request: So what does the record say about solubility for "C=CC(=O)N1CCC[C@@H](n2c(=O)n(-c3ccc(Oc4ccccc4)cc3)c3c(N)nccc32)C1" ?
Response: ~20 mg/mL
